Origin of values: patent US20070020327A1

Molecular target: HLA-A*0201 (human)
Assay: competition with 125I-labelled standard peptide for purified HLA, gel filtration; ratio = IC50 standard / IC50 test peptide
reportedMetric: binding affinity ratio (ratio to standard peptide)

P = QVLVASRGRA (modifications not checked) [PSA peptide …, position 35, 10 amino acids]
Q = QLAGAKGVIL (modifications not checked) [PSM peptide …, position 218, 10 amino acids]
R = QMALDVYNGL (modifications not checked) [PAP peptide …, position 297, 10 amino acids]
Exam item: Order the entries by their reported binding affinity ratio (ratio to standard peptide), beginning at the minimum. # the answer lists labels in the order requested
Marked response: P, R, Q
